Where do these numbers come from? They come from PubChem BioAssay (NCATS).

Assay: qHTS of pediatric cancer cell lines to identify multiple opportunities for drug repurposing: Primary screen for SK-N-MC cells (AID 1347093); further: potency means the concentration at half of the fitted maximal effect
Details: SK-N-MC viability, CellTiter-Glo luminescence, 48 h; series mostly up to 46 µM
Records with an inconclusive call do not appear. The source made the active and inactive calls. The call rests on the fitted dose curve; in most records, active means well fitted cell-killing curve with a large enough effect; inconclusive means small, poorly fitted or top-dose-only effect; inactive means no such curve, though single readings can be large or run the other way.
Consider the following molecules; for each one, report its Potency.

Input line: Tell me the measured Potency of N[C@@H](CC(=O)N1CCn2c(nnc2C(F)(F)F)C1)Cc1cc(F)c(F)cc1F , please.
Output line: 18.7 µM (active)

Input line: Tell me the measured Potency of O=C1Nc2ccc(I)cc2C1=Cc1cc(Br)c(O)c(Br)c1 , please.
Output line: 8.33 µM (active)

Input line: Tell me the measured Potency of O=C(O)CCC=CCC[C@@H]1[C@H](N2CCCCC2)[C@@H](O)C[C@@H]1OCc1ccc(-c2ccccc2)cc1 , please.
Output line: 26.4 µM (active)
